biological target: HLA-A*02:03; experiment: IEDB peptide-MHC binding, purified MHC/competitive/radioactivity; bounds were set here for any values at or beyond the usual limits of such assays; conditions: source organism: Vaccinia virus WR
observationType: IC50
Write the figure, then the unit, nothing else.

Find the measured IC50 of `PASISSVLTI` and report it. 83 nM

Specify measured IC50 for `ITFLRPVLKA` . 718 nM

For the sequence `KVLSIMAFIL` , give its reported IC50. 684 nM

Tell us which IC50 value is on record for `ILRNYLRLYI` 0.9 nM

Fill in IC50 for record `GMSIVCIVAA` 231 nM

Give the value of IC50 reported for the following: `VQFSILNNPV` 369 nM

Identify the reported IC50 for the following entry. `YTISSESLV` 38 nM

Provide IC50 value for the following sequence: `PTSETMYLTM` 191 nM

Return the recorded IC50 value; entry: `DINVIGLIVI` 2810 nM

Identify measured IC50 corresponding to `VADLSARNKL` 2160 nM

Query IC50 for `ILGIIITVGM` 265 nM

State its IC50 for this sequence: `TLLNETAKV` 83 nM

* * *

Task for the reader: assign each of the following sequences its reported IC50.
target: HLA-A*02:01; test: IEDB peptide-MHC binding, purified MHC/competitive/radioactivity; bounds were set here for any values at or beyond the usual limits of such assays; conditions: source organism: Vaccinia virus WR
Answer in nM, number only, no unit symbol.

For HLA-A*02:01, give the measured IC50 of the entry `NMINKLYGYA` 88

Print HLA-A*02:01 IC50 for `DINESMSQMV` . 158

Report IC50 under test system HLA-A*02:01 for `SIYECITFL` . 77

Please indicate recorded IC50 of `EVGIKSVVV` measured with HLA-A*02:01. 123

* * *

molecular target: HLA-A*02:03; assay: IEDB peptide-MHC binding, purified MHC/competitive/radioactivity; bounds were set here for any values at or beyond the usual limits of such assays; settings: source organism: SARS-CoV1
For each record, write down the corresponding IC50.
All answers are understood in nM, so give the number only.

Fill in reported IC50 for this entry: `CLDAGINYV` 6.4

Provide IC50 value for the following sequence: `TLLCVLAAL` 11

Provide IC50 value for the following sequence: `FLCLFLLPSL` 2.9

Kindly indicate its recorded IC50. Item: `FVDGVPFVV` 86

State, in one line, measured IC50 of `MQVFFGYFA` 193

Indicate the recorded IC50 value for this sequence: `LMSFTILCL` 16

Note down IC50 recorded for `QLMCQPILL` 12

Answer with the recorded IC50 for the sequence listed here: `GLIAIVMVTI` 19

Output IC50 of `LMYKGLPWNV` 5.3

Give me measured IC50, please, for this sequence: `LLLWISVKV` 198

Consider the sequence `AIMTRCLAV` . State its measured IC50. 15

Identify the reported IC50 for the following entry. `FICNLLLLFV` 15

State its IC50: `VMYASALVLL` 4

Item `AMWLLLLSI` : provide IC50 205

* * *

molecular target: HLA-A*02:02; test: IEDB peptide-MHC binding, cellular MHC/competitive/fluorescence; bounds were set here for any values at or beyond the usual limits of such assays; details: source organism: Vaccinia virus WR
Give IC50 for every item shown.

Answer with reported IC50 of `TIDNIVTSLA` ≥ 70 µM

Specify IC50 for `PMIIGEPIIV` and stop. ≥ 70 µM

Provide one value: measured IC50 of `ELTNKKYRCM` ≥ 70 µM

Name the recorded IC50 of the item `DVGCLLTDT` in your answer. ≥ 70 µM

Answer with the recorded IC50 for the sequence listed here: `TTENAAYQV` ≥ 70 µM

Indicate the recorded IC50 value for this sequence: `DIMLPESDL` 18.5 µM

Name the recorded IC50 of the item `AATKRYPGVM` in your answer. 20.1 µM

Assign IC50 to the following record: `TAGNKVDVDI` 11 µM

Quote IC50 reported for `VTDKTAYIGT` please. 21.8 µM

Note IC50 for the sequence shown: `DVEKRILNT` 5.82 µM

Identify measured IC50 associated with `PVVYHDDDNT` 9.14 µM

Supply IC50 value. Item: `SVDFVVNGHT` ≥ 70 µM

State its IC50: `DAKRNSKSL` 13.7 µM

Provide measured IC50 value, entry: `IIELPYVGDT` 13.7 µM

Tell me IC50 reported for `VAEHRFENM` 7.13 µM

Answer with the recorded IC50 of `SADNHPKMI` only. 8.18 µM

Recall and state the measured IC50 for `CIVAAVIIM` . 14.3 µM

Annotate the sequence `IILFQNNDI` with its measured IC50. 11.3 µM

State its IC50: `SAEDNYLAKL` ≥ 70 µM

Tell me measured IC50 for `KINNNRIVAM` please. 9.12 µM

Give recorded IC50. `AIDRQVSVKL` 7.9 µM

Provide measured IC50 value, entry: `NTLIQYRQQL` 6.37 µM

Using the record for `CTEETKRNIA` , state its measured IC50. ≥ 70 µM

Specify measured IC50 for `KTPVIVVPVI` . 9.09 µM

Input `WIKNLETYT` , output reported IC50. 18.3 µM

Tell us which IC50 value is on record for `YASLTTIGTI` 6.29 µM

Tell me measured IC50 for `RVNHAKYMVT` please. 33.6 µM

Give me measured IC50, please, for this sequence: `DILQMREIIT` 45.5 µM

Write down IC50 measured for item `DVKVLAARL` 6.23 µM

Give a short answer stating reported IC50 for `DTIESAKTKI` . 47.9 µM

For the sequence `AVSVYGAIT` , give its measured IC50 value. 11.4 µM

Find the measured IC50 of `LVQYRILPMI` and report it. 12.5 µM

Provide measured IC50 value, entry: `FTDCRTIDAI` 9.44 µM

Retrieve IC50 measured for `YVPSAEDNYL` and print it. ≥ 70 µM

Identify measured IC50 corresponding to `VIRHVDGKIL` ≥ 70 µM

Assign IC50 to the following record: `IVQLPKRGV` 12 µM

Identify IC50 associated with the sequence `FIISTLNKIL` 5.08 µM

For the sequence `GANGSTAEQL` , report IC50. 7.28 µM

Give the value of IC50 reported for the following: `RTWKVLSIM` 19.1 µM

Could you please provide reported IC50 for `ITLVVISVI` ? Thanks! 15.1 µM

Return reported IC50. Input sequence: `DISVNASKTI` 46.8 µM

Please list IC50 recorded for the sequence `LTPFEKEFT` 16.8 µM

Output IC50 of `STTGEWPLI` 21.1 µM

Please list IC50 recorded for the sequence `PVIVPDIKL` 41.2 µM

Indicate its recorded IC50; the sequence in question is `CVRLNNPVIL` 8.56 µM

Read off the recorded IC50 for `QVKDNIISRT` 17.8 µM

Recall and state the measured IC50 for `VILPDKIDGL` . 8.09 µM

// fetch IC50 given entry `TTENAAYQVL` 29.7 µM

// fetch IC50 given entry `PTRTWKVLSI` 41.9 µM

Write down IC50 measured for item `VAKCCSKTNT` 14.7 µM

Cited source: the Immune Epitope Database (IEDB)
